test-summary: AUC in Wistar-Han rat at 5 mg/kg, po
Assay type: ADME, organism-based
Set-up: dose 5 mg/kg, route oral
condition-set: plasma
reported-property: AUC (ng·h/mL)
Number in ng·h/mL, nothing else.

Would you mind telling me what AUC value was observed for `CCn1cc2c(Oc3cnc(C(=O)N4CCC4)c(F)c3)cc(C(=O)Nc3cnc(C)cn3)cc2n1` ?
5440

* * *

test-summary: Kinetic solubility of the compound
Format: physicochemical
condition-set: read-out: Kinetic_solubility
Classify by solubility kinetic. Ranges: low = under 70 µM, intermediate = from 70 µM up to 200 µM, high = 200 µM and over

The entry to classify is `CCn1cc2c(Oc3ccc(S(C)(=O)=O)cc3)cc(C(=O)Nc3cnc(C)cn3)cc2n1` ; which class holds it?
low

What would you report for `CCn1cc2c(Oc3cnc(C(=O)N4CCC4)c(F)c3)cc(C(=O)Nc3cnc(C)cn3)cc2n1` ?
intermediate

Check `Cc1cnc(NC(=O)c2cc(Oc3ccc(S(=O)(=O)N(C)C)cc3)c3cn(C)nc3c2)cn1` too.
intermediate

Would you mind doing `Cc1cnc(NC(=O)c2cc(Oc3cnc(C(=O)N(C)C)c(F)c3)c3cn(C)nc3c2)cn1` as well?
high

Same again, this time with `Cc1cnc(NC(=O)c2cc(Oc3cnc(C(=O)N(C)C)cn3)c3cn(C)nc3c2)cn1`
intermediate

Next molecule: `Cc1cnc(NC(=O)c2cc(Oc3ccc(S(C)(=O)=O)cc3)c3cn(C4CC4)nc3c2)cn1`
low

Entry `Cc1cnc(NC(=O)c2cc(Oc3cnc(C(=O)N(C)C)nc3)c3cn(C)nc3c2)cn1` please
high

// next record `CNS(=O)(=O)c1ccc(Oc2cc(C(=O)Nc3cnc(C)cn3)cc3nn(C)cc23)cc1`
low

Next molecule: `Cc1cnc(NC(=O)c2cc(Oc3ccc(S(C)(=O)=O)cc3)c3cn(C)nc3c2)cn1`
high

`Cc1cnc(NC(=O)c2cc(Oc3ccc(S(C)(=O)=O)cc3)c3cn(CCO)nc3c2)cn1` ?
low

And then `Cc1cnc(NC(=O)c2cc(Oc3cnc(C(=O)N(C)C)cn3)c3cc(C)nn3c2)cn1` , what is it?
intermediate

Please answer likewise for `Cc1cnc(NC(=O)c2cc(Oc3ccc(S(=O)(=O)C4CC4)cc3)c3cn(C)nc3c2)cn1`
intermediate

// next record `CCCn1cc2c(Oc3ccc(S(C)(=O)=O)cc3)cc(C(=O)Nc3cnc(C)cn3)cc2n1`
low

Can you handle `CCn1cc2c(Oc3cnc(C(=O)N(C)C)c(F)c3)cc(C(=O)Nc3cnc(C)cn3)cc2n1` next?
high

Then `Cc1cnc(NC(=O)c2cc(Oc3ccc(C(=O)N(C)C)cc3)c3cn(C)nc3c2)cn1` ?
high

* * *

test-summary: Lipophilicity, log D of the compound by shake flask method
Assay type: physicochemical
condition-set: octanol/water
The label is criterion met for logD below 2 and criterion not met for logD equal to or exceeding 2.

Please determine if `Cc1cnc(NC(=O)c2cc(Oc3cnc(C(=O)N(C)C)cn3)c3cn(C)nc3c2)cn1` is below 2 in terms of logD.
criterion met

Now this one: `Cc1cnc(NC(=O)c2cc(Oc3cnc(C(=O)N(C)C)cn3)c3cc(C)oc3c2)cn1`
criterion not met

Quick one: `CCn1cc2c(Oc3cnc(C(=O)N(C)C)c(F)c3)cc(C(=O)Nc3cnc(C)cn3)cc2n1`
criterion met

Also check `Cc1cnc(NC(=O)c2cc(Oc3cnc(C(=O)N(C)C)cn3)c3cc(C)nn3c2)cn1`
criterion met

* * *

System: INS1
test-summary: Increase of glucose-stimulated insulin secretion in rat INS-1 cells
reported-property: EC50 (nM)
Reply with just the number (in nM).

Using the record for `CCn1cc2c(Oc3cnc(C(=O)N4CCC4)c(F)c3)cc(C(=O)Nc3cnc(C)cn3)cc2n1` , report its EC50.
170

* * *

measured-on: UniProt:P35557
Sequence (P35557 whole entry): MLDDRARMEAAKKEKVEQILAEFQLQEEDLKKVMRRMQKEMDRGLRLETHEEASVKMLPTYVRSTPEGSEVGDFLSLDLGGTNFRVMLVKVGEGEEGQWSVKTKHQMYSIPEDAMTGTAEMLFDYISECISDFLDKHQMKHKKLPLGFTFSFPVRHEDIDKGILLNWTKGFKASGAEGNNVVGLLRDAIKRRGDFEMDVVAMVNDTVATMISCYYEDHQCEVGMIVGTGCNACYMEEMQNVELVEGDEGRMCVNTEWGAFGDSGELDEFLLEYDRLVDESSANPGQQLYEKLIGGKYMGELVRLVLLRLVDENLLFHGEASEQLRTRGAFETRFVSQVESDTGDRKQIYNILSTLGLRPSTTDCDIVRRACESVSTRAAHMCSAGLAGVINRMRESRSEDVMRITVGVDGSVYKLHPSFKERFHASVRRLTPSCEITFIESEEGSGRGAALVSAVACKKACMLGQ
test-summary: Activation of recombinant human glucokinase assessed measuring rate of glucose 6-phosphate formation using G6PDH/NADP coupling
Please provide measured pEC50 for the entries that follow.
// field semantics: pEC50 = negative decimal log of concentration (mol/L)

Would you kindly share the measured pEC50 for `Cc1cnc(NC(=O)c2cc(Oc3ccc(S(=O)(=O)C4CC4)cc3)c3cn(C)nc3c2)cn1` ?
6.29

Try this molecule too: `CCS(=O)(=O)c1ccc(Oc2cc(C(=O)Nc3cnc(C)cn3)cc3nn(C)cc23)cc1`
6.01

Do the same for `Cc1cnc(NC(=O)c2cc(Oc3ccc(S(C)(=O)=O)cc3)c3cn(C4CC4)nc3c2)cn1` please
5.69

Proceed to `Cc1cnc(NC(=O)c2cc(Oc3cnc(C(=O)N(C)C)cn3)c3cn(C)nc3c2)cn1`
6.00

// repeat for `CCn1cc2c(Oc3cnc(C(=O)N4CCC4)c(F)c3)cc(C(=O)Nc3cnc(C)cn3)cc2n1` and report
6.92

Field entry: `Cc1cnc(NC(=O)c2cc(Oc3ccc(S(C)(=O)=O)cc3)c3cn(CCO)nc3c2)cn1`
5.81

Subsequent entry: `Cc1cnc(NC(=O)c2cc(Oc3ccc(S(N)(=O)=O)cc3)c3cn(C)nc3c2)cn1`
5.63

* * *

measured-on: Hexokinase-4 (Rattus norvegicus, UniProt P17712)
Sequence (P17712 whole entry): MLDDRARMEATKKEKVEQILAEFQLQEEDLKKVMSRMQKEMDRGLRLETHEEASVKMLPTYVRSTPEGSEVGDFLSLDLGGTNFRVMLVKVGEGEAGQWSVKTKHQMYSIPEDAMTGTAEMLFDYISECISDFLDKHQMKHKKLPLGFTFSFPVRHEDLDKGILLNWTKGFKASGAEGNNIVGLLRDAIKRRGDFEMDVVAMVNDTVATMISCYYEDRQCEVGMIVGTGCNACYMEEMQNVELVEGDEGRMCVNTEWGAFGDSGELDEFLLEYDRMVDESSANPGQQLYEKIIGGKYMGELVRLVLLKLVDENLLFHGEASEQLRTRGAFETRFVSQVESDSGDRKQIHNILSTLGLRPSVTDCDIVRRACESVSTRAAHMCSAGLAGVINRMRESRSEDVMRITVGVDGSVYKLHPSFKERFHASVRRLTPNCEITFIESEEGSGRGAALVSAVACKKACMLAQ
test-summary: Activation of recombinant rat glucokinase assessed measuring rate of glucose 6-phosphate formation using G6PDH/NADP coupling
reported-property: pEC50
Here pEC50 is given on a logarithmic scale as minus log10 of the concentration in mol/L.

Request body: readout pEC50, system Hexokinase-4 (Rattus norvegicus, UniProt P17712), query `CCn1cc2c(Oc3cnc(C(=O)N4CCC4)c(F)c3)cc(C(=O)Nc3cnc(C)cn3)cc2n1` . Return the value.
6.46

* * *

test-summary: Intrinsic clearance of the compound in human liver microsomes
Type: ADME, Microsome
condition-set: read-out: CLH
reported-property: CLint scaled

Consider the compound `Cc1cnc(NC(=O)c2cc(Oc3cnc(C(=O)N(C)C)cn3)c3cc(C)oc3c2)cn1` and give its measured CLint scaled.
< 8 mL/min/kg

Record: `CCCn1cc2c(Oc3ccc(S(C)(=O)=O)cc3)cc(C(=O)Nc3cnc(C)cn3)cc2n1`
< 8 mL/min/kg

Also `Cc1cnc(NC(=O)c2cc(Oc3cnc(C(=O)N(C)C)cn3)c3cc(C)nn3c2)cn1` ?
13.7 mL/min/kg

// repeat for `Cc1cnc(NC(=O)c2cc(Oc3cnc(C(=O)N(C)C)nc3)c3cn(C)nc3c2)cn1` and report
< 8 mL/min/kg

// repeat for `Cc1cnc(NC(=O)c2cc(Oc3ccc(S(=O)(=O)C4CC4)cc3)c3cn(C)nc3c2)cn1` and report
< 8 mL/min/kg

// query: `CCn1cc2c(Oc3ccc(S(C)(=O)=O)cc3)cc(C(=O)Nc3cnc(C)cn3)cc2n1`
< 8 mL/min/kg

And `Cc1cnc(NC(=O)c2cc(Oc3cnc(C(=O)N(C)C)c(F)c3)c3cn(C)nc3c2)cn1` ?
< 8 mL/min/kg

Next record, please: `Cc1cnc(NC(=O)c2cc(Oc3ccc(S(C)(=O)=O)cc3)c3cn(C)nc3c2)cn1`
< 8 mL/min/kg

Record: `Cc1cnc(NC(=O)c2cc(Oc3ccc(C(=O)N(C)C)cc3)c3cn(C)nc3c2)cn1`
12.3 mL/min/kg

Follow-up item: `Cc1cnc(NC(=O)c2cc(Oc3cnc(C(=O)N4CCC4)c(F)c3)c3cn(C)nc3c2)cn1`
< 8 mL/min/kg

What do you have for `Cc1cnc(NC(=O)c2cc(Oc3ccc(S(C)(=O)=O)cc3)c3cn(CCO)nc3c2)cn1` ?
< 8.9 mL/min/kg

What would you report for `CCn1cc2c(Oc3cnc(C(=O)N4CCC4)c(F)c3)cc(C(=O)Nc3cnc(C)cn3)cc2n1` ?
< 8 mL/min/kg

Note, next up: `Cc1cnc(NC(=O)c2cc(Oc3cnc(C(=O)N(C)C)cn3)c3cn(C)nc3c2)cn1`
< 8.5 mL/min/kg

Would you mind doing `CCS(=O)(=O)c1ccc(Oc2cc(C(=O)Nc3cnc(C)cn3)cc3nn(C)cc23)cc1` as well?
< 8 mL/min/kg

Could you do the same for `Cc1cnc(NC(=O)c2cc(Oc3ccc(S(=O)(=O)N(C)C)cc3)c3cn(C)nc3c2)cn1` , please?
< 8 mL/min/kg

Next record, please: `CNS(=O)(=O)c1ccc(Oc2cc(C(=O)Nc3cnc(C)cn3)cc3nn(C)cc23)cc1`
< 8.6 mL/min/kg

What do you get for `Cc1cnc(NC(=O)c2cc(Oc3ccc(S(C)(=O)=O)cc3)c3cn(C4CC4)nc3c2)cn1` ?
< 8 mL/min/kg

Try `CCn1cc2c(Oc3cnc(C(=O)N(C)C)c(F)c3)cc(C(=O)Nc3cnc(C)cn3)cc2n1` next.
10.4 mL/min/kg
